- measurement protocol: Stability of test peptides in human BALF (LC/MS/MS, first order half-life)
- Type: in vitro ADME
- test context: human BALF from COPD patients, 1st experiment, read-out: BALF t1/2 (1st exp.) (converted)
- Method: Various test peptides in human plasma, human BALF, and CF patient mucus were analyzed to determine the susceptability of the test peptide to proteolysis in the biological fluids. […] The samples were analyzed either on the same day as received or stored at −20° C. and analyzed within the following two days. […] All samples were analyzed using LC/MS/MS (MDS/SCIEX, API 4000 Model). […] Duplicate calibration standards were analyzed at a concentration of 50 μg/mL for each peptide. […]
test readout: half-life (h)
Numbers only, in h.

Item H-GAQFSKTAAK-NH2 [peptide 106-NH2] has what recorded half-life?
4

====

- measurement protocol: Qualitative solubility of test peptides in 0.5 N saline
- Assay type: physicochemical
- test context: pH 6.5, 20° C. (table title)
I'd be grateful if you could share measured solubility for these entries.

Ac-GAQFSATAAA-OH [Ac-peptide 249] :: < 1 mg/mL
Ac-AAKGEA-OH [Ac-peptide 179] :: > 150 mg/mL
Ac-FSKTAAKGE-NH2 [Ac-peptide 124-NH2] :: > 100 mg/mL
Ac-GAAFSKTAAK-OH [Ac-peptide 243] :: > 50 mg/mL

Next item in the queue.
Tell me the measured solubility of Ac-KAATKSFQAG-OH [Ac-peptide 246, reference compound] , please.
< 30 mg/mL

====

Exercise: state measured solubility for each of the compounds provided.
- measurement protocol: Qualitative solubility of test peptides in 0.5 N saline
- Type: physicochemical
- test context: pH 6.5, 20° C. (table title)
Where a SMILES comes first, the peptide text is derived from it. The star is where a group is joined. Myristoyl = CCCCCCCCCCCCCC(=O)*

Check out these entries, answers already filled in.
CCCCCCCCCCCCCC(=O)NCC(=O)N[C@@H](C)C(=O)N[C@@H](CCC(N)=O)C(=O)N[C@@H](C)C(=O)N[C@@H](CO)C(=O)N[C@@H](CCCCN)C(=O)N[C@H](C(=O)N[C@@H](C)C(=O)N[C@@H](C)C(=O)N[C@@H](CCCCN)C(=O)NCC(=O)N[C@@H](CCC(=O)O)C(N)=O)[C@@H](C)O [myr-peptide 237-NH2] (Myristoyl-GAQASKTAAKGE-NH2) :: < 1000 µg/mL
CC(=O)N[C@@H](C)C(=O)N[C@@H](CCCCN)C(=O)NCC(=O)N[C@@H](CCC(=O)O)C(=O)O [Ac-peptide 219] (Ac-AKGE-OH) :: > 200000 µg/mL

Can you look up the measured solubility of CCCCCCCCCCCCCC(=O)NCC(=O)N[C@@H](C)C(=O)N[C@@H](CCC(N)=O)C(=O)N[C@@H](Cc1ccccc1)C(=O)N[C@@H](CO)C(=O)N[C@@H](CCCCN)C(=O)N[C@H](C(=O)N[C@@H](C)C(=O)O)[C@@H](C)O [myr-peptide 137] (Myristoyl-GAQFSKTA-OH) for me?
< 1000 µg/mL
